I'd be grateful if you could share measured self-cleavage for these entries.
B1: CPEB3 Ribozyme (parent)
chain: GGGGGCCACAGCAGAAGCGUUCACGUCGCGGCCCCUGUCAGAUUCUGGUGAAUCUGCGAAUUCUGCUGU

Variants of: B1
Experiment: self-cleavage, relative activity (ratio to wild type); higher = more cleavage; co-transcriptional
Answers are plain numbers.

Observe how each entry below is paired with its result.
{"columns": ["construct-sequence", "self-cleavage"],
 "data": [
  ["GGCGGCCACAGCAGAAGCGUUCACGUCGCGGCCCCUGUCAGAUUCUGGUGAAUCUGCGAAUUCUCCUGU [G3C G65C]", 0.0156],
  ["GGGGGCCACAGCAGAAGCGUUGAAGUCGCGGCCCCUGUCAGAUUCUGGUGAAUCUGCGAAUUCUGCUGU [C22G C24A]", 0.129],
  ["GGGGGCCACAGCAGAAGCGUUCACGUCGCGGCCCCUGGCAGAUUCUGGUGAGUCUGCGAAUUCUGCUGU [U38G A52G]", 0.327],
  ["GGGGGCCACAGCAGAAACGUUCACGUCGCGGCCCCUGUCAGAUUCUGGUGAAUAUGCGAAUUCUGCUGU [G17A C54A]", 0.236],
  ["GGGGGCCCCAGCAGAAGCGUUUACGUCGCGGCCCCUGUCAGAUUCUGGUGAAUCUGCGAAUUCUGCUGU [A8C C22U]", 0.22]
]}

Count: 2. Required value per item: self-cleavage.
1. GGGGGCCACAGCAGAAACGUUCACGUCGCGGCCCCUGUCAGAUUCUGGUUAAUCUGCGAAUUCUGCUGU [G17A G50U]
2. GGGGGCCACAGCAGAAGCUUUCACGUCGCGGCCCCUGUCAGAUUCUGGUGAAUCUGCGAAUUCUGCUGU [G19U]

[0.547, 0.644]
